Task for the reader: assign each of the following molecules its reported IC50.
target: wild type PRC2 (wtPRC2) complex (Homo sapiens (Human), UniProt O75530); assay: EED LC-MS assay; type: biochemical; conditions: EED LC-MS Qualified assay; read-out: (b) IC50
Sequence (O75530 whole entry): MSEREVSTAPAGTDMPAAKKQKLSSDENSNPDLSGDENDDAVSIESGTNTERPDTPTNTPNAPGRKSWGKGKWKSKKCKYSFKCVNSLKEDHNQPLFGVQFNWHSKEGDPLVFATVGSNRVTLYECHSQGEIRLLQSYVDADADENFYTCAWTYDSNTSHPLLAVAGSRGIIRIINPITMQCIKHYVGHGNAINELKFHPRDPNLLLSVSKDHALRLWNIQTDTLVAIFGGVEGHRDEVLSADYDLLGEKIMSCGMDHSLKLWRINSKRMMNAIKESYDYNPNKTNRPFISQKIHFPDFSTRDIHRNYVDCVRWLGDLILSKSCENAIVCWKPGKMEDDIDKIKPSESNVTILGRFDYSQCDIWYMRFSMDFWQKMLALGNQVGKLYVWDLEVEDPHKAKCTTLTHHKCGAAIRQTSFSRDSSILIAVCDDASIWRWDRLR
Sequence (Q15910 whole entry partner): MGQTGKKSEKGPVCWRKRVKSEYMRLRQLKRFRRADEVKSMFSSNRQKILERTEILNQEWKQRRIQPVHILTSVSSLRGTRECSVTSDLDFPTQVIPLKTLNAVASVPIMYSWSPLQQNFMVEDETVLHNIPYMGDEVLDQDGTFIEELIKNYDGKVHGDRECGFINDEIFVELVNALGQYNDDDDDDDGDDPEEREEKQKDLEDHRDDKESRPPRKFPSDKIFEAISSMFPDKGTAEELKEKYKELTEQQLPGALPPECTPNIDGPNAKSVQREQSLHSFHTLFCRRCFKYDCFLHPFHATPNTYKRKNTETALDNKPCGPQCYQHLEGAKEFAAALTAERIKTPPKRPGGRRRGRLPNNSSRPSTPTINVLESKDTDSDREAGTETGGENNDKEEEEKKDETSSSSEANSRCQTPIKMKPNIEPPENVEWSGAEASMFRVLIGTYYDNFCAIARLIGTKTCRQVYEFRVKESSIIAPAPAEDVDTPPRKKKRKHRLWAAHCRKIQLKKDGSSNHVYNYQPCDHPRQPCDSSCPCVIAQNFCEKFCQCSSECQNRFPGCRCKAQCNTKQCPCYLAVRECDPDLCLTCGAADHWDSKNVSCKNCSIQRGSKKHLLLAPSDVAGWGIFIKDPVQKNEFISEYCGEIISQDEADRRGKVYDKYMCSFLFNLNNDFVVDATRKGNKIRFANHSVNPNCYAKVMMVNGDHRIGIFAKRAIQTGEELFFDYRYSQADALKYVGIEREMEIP
Sequence (Q15022 whole entry partner): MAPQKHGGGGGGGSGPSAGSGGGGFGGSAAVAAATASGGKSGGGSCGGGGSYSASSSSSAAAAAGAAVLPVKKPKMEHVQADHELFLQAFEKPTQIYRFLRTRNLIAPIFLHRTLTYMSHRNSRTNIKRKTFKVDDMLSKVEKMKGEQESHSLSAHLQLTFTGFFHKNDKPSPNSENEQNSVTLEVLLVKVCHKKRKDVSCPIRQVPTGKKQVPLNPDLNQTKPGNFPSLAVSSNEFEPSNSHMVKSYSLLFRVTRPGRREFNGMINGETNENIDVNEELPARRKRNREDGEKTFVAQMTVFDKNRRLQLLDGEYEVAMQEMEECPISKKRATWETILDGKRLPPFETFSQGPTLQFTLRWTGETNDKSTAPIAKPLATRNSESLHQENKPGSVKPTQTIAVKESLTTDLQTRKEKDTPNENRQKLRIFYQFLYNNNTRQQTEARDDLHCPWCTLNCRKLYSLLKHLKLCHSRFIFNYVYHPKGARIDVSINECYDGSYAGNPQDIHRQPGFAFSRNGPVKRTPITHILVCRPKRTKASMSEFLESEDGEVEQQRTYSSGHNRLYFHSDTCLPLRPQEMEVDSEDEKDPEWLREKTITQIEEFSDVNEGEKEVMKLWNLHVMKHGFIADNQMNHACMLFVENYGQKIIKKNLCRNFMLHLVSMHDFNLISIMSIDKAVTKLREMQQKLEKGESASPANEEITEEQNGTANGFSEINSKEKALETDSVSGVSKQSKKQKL
Numbers only, in nM.

C#Cc1ncn2c(NCc3c(F)ccc4c3CCO4)ncc(-c3cccnc3C)c12: 6.8
Cc1ncn2c(NCc3c(F)ccc4c3CCO4)ncc(-c3ccc(S(C)(=O)=O)cc3)c12: 29.5
CCOC(=O)c1ncn2c(NCc3c(F)ccc4c3CCO4)ncc(-c3ccc(C)nc3C)c12: 5.7
CS(=O)(=O)c1ccc(-c2cnc(NCc3c(F)ccc4c3CCO4)n3cnc(Cl)c23)cc1: 15
N#Cc1ncn2c(NCc3c(F)ccc4c3CCO4)ncc(-n3ccnc3)c12: 44.7

List the reported IC50 of each molecule below.
1. COc1cc(CNc2ncc(-c3cccnc3C)c3c(C#N)ncn23)c(F)cc1F
2. c1cc(CNc2ncc(-c3ccc(N4CCNCC4)nc3)c3cncn23)c2ccoc2c1
3. Cc1ncc(-c2cnc(NCc3c(F)ccc4c3CCO4)n3cnc(Cl)c23)c(C)n1
4. Cc1ncccc1-c1cnc(NCc2c(F)ccc3c2CCO3)n2cnc(C(=O)NCCO)c12
5. CCOC(=O)c1ncn2c(NCc3cc(OC)c(F)cc3F)ncc(-c3ccc(S(C)(=O)=O)cc3)c12
6. Cc1cc(-c2cnc(NCc3c(F)ccc4c3CCO4)n3cncc23)ccc1S(C)(=O)=O
7. Cc1cc(C(=O)N(C)C)ncc1-c1cnc(NCc2c(F)ccc3c2CCO3)n2cncc12
8. N#Cc1ncn2c(NCc3c(F)ccc4c3CCO4)ncc(-c3ccc(N4CCOCC4)nc3)c12

42.5
49.3
11
6.9
16.8
16.4
12.6
18.1

----------
Molecular target: wild type PRC2 (wtPRC2) complex (Homo sapiens (Human), UniProt O75530)
Experiment: EED LC-MS assay
Assay type: biochemical
Settings: EED LC-MS Qualified assay; read-out: (b) IC50
Description: EED LC-MS Assay Representative compounds of the present invention were serially and separately diluted 3-fold in DMSO to obtain a total of eight or twelve concentrations. […] A 6 μL solution of 3 μM of the peptide substrate H3K27Me0 (histone H3[21-44]-biotin) in reaction buffer was added to initiate each reaction. […] The data were then fit to a dose response equation using the program Helios to get the IC50 values of the test compound.
pIC50: −log10 of the molar value.
Label scheme for pIC50: lower than 8 is class 0, 8 and above is class 1.

Cc1ccc(-c2ncn3c(NCc4c(F)ccc5c4CCO5)ncc(-c4cnc(C)nc4C)c23)cn1: class 0
CS(=O)(=O)c1ccc(-c2cnc(NCc3c(F)ccc4c3CCO4)n3cnc(-c4ncco4)c23)cc1: class 1
CCC(O)c1ncc(-c2cnc(NCc3c(F)ccc4c3CCO4)n3cnc(C#N)c23)c(C)n1 (centres unmarked): class 0
Cc1cc(-c2cnc(NCc3c(F)ccc4c3CCO4)n3cncc23)ccn1: class 0
CCOC(=O)c1ncn2c(NCc3c(F)ccc4c3CCO4)ncc(-c3cnc(C)nc3C)c12: class 1

Threshold query (pIC50 >= 8) on `Cc1ncccc1-c1cnc(NCc2c(F)ccc3c2CCO3)n2cnc(CO)c12` class 0

Does the compound `Cc1nc(C(F)(F)CO)ccc1-c1cnc(NCc2c(F)ccc3c2CCO3)n2cncc12` have recorded pIC50 that is 8 or more? class 0

Item `Cc1ccc(-c2ncn3c(NCc4c(F)ccc5c4CCO5)ncc(-c4cnc(C)nc4C)c23)c(C)n1` with pIC50 of 8 or above? class 0

Entry `CS(=O)(=O)c1cccc(-c2cnc(NCc3c(F)ccc4c3CCO4)n3cncc23)c1` : is its pIC50 no less than 8? class 0

# check: pIC50 of `CN(C)Cc1ccc(-c2cnc(NCc3c(F)ccc4occc34)n3cncc23)cc1` is greater than or equal to 8 class 0

Values compiled from patent US10676479B2.
